# System: SKMEL-19
# PROCEDURE_TEXT: MTT cytotoxicity assay, SKMEL-19 melanoma cells
# Assay type: cell-based, human
# MEASUREMENT_SETUP: Homo sapiens, SK-MEL19, 72 h, IC50 with 95% confidence interval, triplicate, 72 h incubation
pIC50: −log10 of the molar value.
Below is a list of entries, each paired with its recorded pIC50 value.

Take a look at these entries with their results.
# COMPOUND, MEASURE, RESULT
records = [
    ("O=c1oc2cc(O)c(/N=C/c3ccc(Br)cc3)cc2s1 [Compound 4d]", "pIC50", "< 5.00"),
    ("COc1cccc2c1C(=O)c1c(O)c3c(c(O)c1C2=O)C[C@@](O)(C(=O)CO)C[C@@H]3O[C@H]1C[C@H](N)[C@H](O)[C@H](C)O1 [Dox, Doxorubicin, reference compound]", "pIC50", 7.35),
    ("O=c1oc2cc(O)c(/N=C/c3ccc(-c4ccccn4)cc3)cc2s1 [Compound 4q]", "pIC50", "< 5.00"),
]

**Query** Name the recorded pIC50 of the item O=c1oc2cc(O)c(/N=C/c3ccc(O)cc3O)cc2s1 [Compound 4m] in your answer.
**Result** 5.03

**Query** Name the recorded pIC50 of the item O=c1oc2cc(O)c(/N=C/c3cc(Br)ccc3O)cc2s1 [Compound 4p] in your answer.
**Result** < 5.00

**Query** Name the recorded pIC50 of the item Nc1cc2sc(=O)oc2cc1O [Compound 3] in your answer.
**Result** < 5.00

**Query** Name the recorded pIC50 of the item O=c1oc2cc(O)c(/N=C/c3ccc([N+](=O)[O-])cc3)cc2s1 [Compound 4b] in your answer.
**Result** < 5.00

**Query** Name the recorded pIC50 of the item O=c1oc2cc(O)c(/N=C/c3cccc(O)c3O)cc2s1 [Compound 4l] in your answer.
**Result** < 5.00

**Query** Name the recorded pIC50 of the item O=c1oc2cc(O)c(/N=C/c3cccc(Br)c3)cc2s1 [Compound 4e] in your answer.
**Result** < 5.00
